# credit: patent US20230167182A1

# ASSAYED SYSTEM: T1, recombinant human IL6R-his (human, UniProt P08887 20-365)
# T1 construct: In house made; the entry includes the C-terminal His tag; also called human IL6R-his protein
# T1 sequence: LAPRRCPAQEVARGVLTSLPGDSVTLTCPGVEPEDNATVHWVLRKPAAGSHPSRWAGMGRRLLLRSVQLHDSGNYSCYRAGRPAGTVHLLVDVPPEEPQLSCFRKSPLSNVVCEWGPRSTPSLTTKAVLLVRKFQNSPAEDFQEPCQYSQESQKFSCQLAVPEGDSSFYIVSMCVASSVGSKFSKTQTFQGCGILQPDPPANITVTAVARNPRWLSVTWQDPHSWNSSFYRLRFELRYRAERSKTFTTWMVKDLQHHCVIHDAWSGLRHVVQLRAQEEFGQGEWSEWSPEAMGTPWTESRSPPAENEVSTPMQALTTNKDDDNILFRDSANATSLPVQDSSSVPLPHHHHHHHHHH
# ASSAY METHOD TEXT: SPR Biacore; antibody from diluted cell supernatant captured by anti-human IgG on CM5, human IL6R in flow
In this section we review reported kon values for a set of binders.
Answer in M⁻¹ s⁻¹, number only, no unit symbol.

{"columns": ["BINDER", "kon (M⁻¹ s⁻¹)"],
 "data": [
  ["humanized antibody hu1H7-V12 (antibody, human IgG1, kappa, V domains shown, Human IgG1 / kappa) VH: QVQLVQSGAEVKKPGASVKVSCKASGYTFTNYWMHWVRQAPGQGLEWIGEINPTNGRTNYNENFKSKVTLTVDTSTSTVYMELSSLRSEDTAVYYCARLNTHYVFDSWGQGTLVTVSS VL: EIVLTQSPGTLSLSPGERATLSCSVSSSISSNYLHWYQQKPGLSPRLLISRTSTLASGIPARFSGSGSGTEFTLTISRLQSEDFAVYYCQQGSGIPFTFGQGTKLEIKR", 279000]
]}

Now examine the next entry.
Qu. Using known records, supply kon for humanized antibody hu1H7-V5 (antibody, human IgG1, kappa, V domains shown, Human IgG1 / kappa) VH: QVQLVQSGAEVKKPGASVKVSCKASGYTFTNYWMHWVRQAPGQGLEWIGEINPTNGRTNYNENFKSRVTLTVDTSTSTVYMELSSLRSEDTAVYYCARLNTHYVFDSWGQGTLVTVSS VL: EIVLTQSPGTLSLSPGERATLSCSVSSSISSNYLHWYQQKPGLSPRLLISRTSTLASGIPARFSGSGSGTEYTLTISRMQSEDFAVYYCQQGSGIPFTFGQGTKLEIKR
Ans. 370000
